Data provenance: PubChem BioAssay

Target: Alpha-2C adrenergic receptor (Homo sapiens) (UniProt P18825)
Sequence (P18825 whole entry, looked up): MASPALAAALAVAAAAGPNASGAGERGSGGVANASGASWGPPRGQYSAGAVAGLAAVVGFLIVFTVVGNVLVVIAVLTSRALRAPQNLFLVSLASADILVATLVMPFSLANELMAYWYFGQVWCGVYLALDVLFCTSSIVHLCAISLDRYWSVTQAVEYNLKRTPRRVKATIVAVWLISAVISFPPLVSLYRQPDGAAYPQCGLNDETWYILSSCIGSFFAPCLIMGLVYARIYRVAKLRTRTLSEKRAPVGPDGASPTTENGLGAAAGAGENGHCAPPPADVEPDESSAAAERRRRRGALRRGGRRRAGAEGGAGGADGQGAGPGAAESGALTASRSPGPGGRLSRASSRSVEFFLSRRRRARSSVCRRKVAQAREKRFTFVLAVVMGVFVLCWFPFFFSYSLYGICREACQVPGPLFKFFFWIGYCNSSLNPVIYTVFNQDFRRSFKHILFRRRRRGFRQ
Experiment: modulators of alpha2C/GIRK thallium flux, primary screen, cell-based, HEK293 alpha2C/GIRK1/2 (AID 624);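 further: slope of fluorescence ratio to pre-addition baseline per second over 15 to 24 s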
Conditions: thallium flux BTC fluorescence, at 10 µM, actives lie on both sides
# slope >= 0.006 gives Yes, anything below gives No

Example cases with answers are listed next.
CCOC(=O)C(C)(C)Sc1nc2c(cnn2-c2ccc(Cl)cc2)c(=O)[nH]1    Yes
COc1ccc(C2N(C(=O)c3ccccc3)CCN2C(=O)c2ccccc2)cc1    Yes
CCOc1nc(OCC)nc(N2CCC(C)CC2)n1    No

Is reported slope greater than or equal to 0.006 here: O=P1(O)C=C(c2ccccc2)NC(c2ccccc2)=C1
No

And the next one, COc1ccccc1CNC(=O)N[C@@H](Cc1ccccc1)C(=O)O ?
Yes
